biological target: T1, recombinant human VISTA (His-tagged) (human, UniProt Q9H7M9 33-194); experiment: BLI (Octet), 1:1 global fit, His-tagged human VISTA captured
T1 construct: bought soluble protein (Sino Biological); also called hVISTA; human VISTA polypeptide
TEST_READOUT: kon (M⁻¹ s⁻¹)
Response body: numeric value in M⁻¹ s⁻¹, unit text excluded.

BINDER	NUMERIC_READOUT
anti-VISTA clone V4-C27 IgG1 (antibody, V domains shown) VH: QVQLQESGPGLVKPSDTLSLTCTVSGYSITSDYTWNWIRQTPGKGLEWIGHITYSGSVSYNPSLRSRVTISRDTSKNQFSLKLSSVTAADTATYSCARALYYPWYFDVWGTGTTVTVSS VL: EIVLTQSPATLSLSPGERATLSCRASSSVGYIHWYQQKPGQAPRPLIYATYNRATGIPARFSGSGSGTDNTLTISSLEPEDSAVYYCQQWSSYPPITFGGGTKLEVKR	465000
anti-VISTA clone V4-C28 IgG1 (antibody, V domains shown) VH: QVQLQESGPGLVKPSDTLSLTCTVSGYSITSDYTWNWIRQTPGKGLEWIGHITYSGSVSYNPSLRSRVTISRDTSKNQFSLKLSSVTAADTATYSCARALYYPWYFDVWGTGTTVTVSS VL: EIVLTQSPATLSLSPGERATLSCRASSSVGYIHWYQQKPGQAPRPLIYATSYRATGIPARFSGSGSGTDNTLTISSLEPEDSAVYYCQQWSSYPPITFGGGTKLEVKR	507000

Shifting focus to the binder that follows.
Report kon for anti-VISTA clone V4-C1 IgG1 (antibody, V domains shown) VH: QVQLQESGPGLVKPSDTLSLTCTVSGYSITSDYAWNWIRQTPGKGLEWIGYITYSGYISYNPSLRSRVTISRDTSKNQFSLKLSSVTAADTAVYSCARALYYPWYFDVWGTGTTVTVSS VL: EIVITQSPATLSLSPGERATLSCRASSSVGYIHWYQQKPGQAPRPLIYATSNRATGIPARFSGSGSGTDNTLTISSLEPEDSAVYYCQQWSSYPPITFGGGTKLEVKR please.
343000

From: patent US20250313631A1
